Molecular target: KMT9 (Homo sapiens, UniProt Q9Y5N5)
Sequence (Q9Y5N5 1-214): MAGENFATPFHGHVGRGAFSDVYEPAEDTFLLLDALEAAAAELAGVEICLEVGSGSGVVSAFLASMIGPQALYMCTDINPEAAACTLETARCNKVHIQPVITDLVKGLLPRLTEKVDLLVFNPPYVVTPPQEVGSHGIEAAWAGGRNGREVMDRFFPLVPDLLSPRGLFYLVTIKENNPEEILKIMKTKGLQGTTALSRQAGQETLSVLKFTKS
Sequence (Q9UI30 1-120 isoform Q9UI30-2 partner): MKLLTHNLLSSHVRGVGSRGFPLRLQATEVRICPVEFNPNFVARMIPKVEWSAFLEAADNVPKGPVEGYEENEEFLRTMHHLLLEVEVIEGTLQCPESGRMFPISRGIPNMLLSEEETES
Experiment: KMT9 thermal shift assay (SyproOrange)
Assay type: binding
Conditions: ΔTm; 500 µM compound, 2 μM KMT9, 5X SO; read-out: Thermal shift

- COMPOUND: "CNc1ncnc2c1ccn2[C@@H]1C[C@H](CN(CCCNCCc2cccc(Oc3ccccc3)c2)NC)[C@@H](O)[C@H]1O"
  ΔTm at 500 µM: "≤ 10 °C"
- COMPOUND: "CNc1ncnc2c1ccn2[C@@H]1C[C@H](C(=O)NCC2CCNCC2)[C@@H](O)[C@H]1O"
  ΔTm at 500 µM: "≤ 10 °C"
- COMPOUND: "Nc1ncnc2c1c(-c1nc(Oc3ccccc3)cs1)cn2[C@@H]1C[C@H](CNCCCNCCc2ccccc2)[C@@H](O)[C@H]1O"
  ΔTm at 500 µM: "15 to 20 °C"
- COMPOUND: "CNc1ncnc2c1ccn2[C@@H]1C[C@H](C(=O)NCCCNCc2cccc(Oc3ccccc3)c2)[C@@H](O)[C@H]1O"
  ΔTm at 500 µM: "10 to 15 °C"
- COMPOUND: "CNC(=O)[C@H]1C[C@@H](n2cc3c4c(ncnc42)NCCC3)[C@H](O)[C@@H]1O"
  ΔTm at 500 µM: "≤ 10 °C"
- COMPOUND: "CNc1ncnc2c1ccn2[C@@H]1C[C@H](CN(CCCN)c2cncs2)[C@@H](O)[C@H]1O"
  ΔTm at 500 µM: "≤ 10 °C"
- COMPOUND: "CNc1ncnc2c1ccn2[C@@H]1C[C@H](CNC(=O)C2CCCNC2)[C@@H](O)[C@H]1O (stereo partly shown)"
  ΔTm at 500 µM: "≤ 10 °C"
- COMPOUND: "Nc1ncnc2c1ccn2[C@@H]1C[C@H](c2ccccc2)[C@@H](O)[C@H]1O"
  ΔTm at 500 µM: "≤ 10 °C"
- COMPOUND: "CNc1ncnc2c1ccn2[C@@H]1O[C@H](CNCCCNCCc2ccccc2)[C@@H](O)[C@H]1O"
  ΔTm at 500 µM: "10 to 15 °C"
- COMPOUND: "CNc1ncnc2c1ccn2[C@@H]1C[C@H](CN(CCCNCCc2ccccc2)CC(F)(F)F)[C@@H](O)[C@H]1O"
  ΔTm at 500 µM: "≤ 10 °C"
- COMPOUND: "CNc1ncnc2c1ccn2[C@@H]1C[C@H](CNCCCNCc2ccc(Oc3ccccc3)cc2)[C@@H](O)[C@H]1O"
  ΔTm at 500 µM: "≤ 10 °C"
- COMPOUND: "Nc1ncnc2c1c(-c1ccn(Cc3ccccc3)n1)cn2[C@@H]1C[C@H](C2CCNCC2)[C@@H](O)[C@H]1O"
  ΔTm at 500 µM: "15 to 20 °C"
- COMPOUND: "COCCn1cc(-c2ccc(CCNCCCNC[C@H]3O[C@@H](n4cnc5c(N)ncnc54)[C@H](O)[C@@H]3O)cc2)nn1"
  ΔTm at 500 µM: "≤ 10 °C"
- COMPOUND: "CNc1ncnc2c1ccn2[C@@H]1C[C@H](CN(CCCNCCc2ccccc2)c2cc[nH]n2)[C@@H](O)[C@H]1O"
  ΔTm at 500 µM: "≤ 10 °C"
- COMPOUND: "CCc1cn([C@@H]2C[C@H](CNCCCNCCc3ccc(C(F)(F)F)cc3)[C@@H](O)[C@H]2O)c2ncnc(N)c12"
  ΔTm at 500 µM: "10 to 15 °C"
- COMPOUND: "Nc1ncnc2c1c(-c1ccn[nH]1)cn2[C@@H]1C[C@H](CNCCCNCCc2ccccc2)[C@@H](O)[C@H]1O"
  ΔTm at 500 µM: "15 to 20 °C"
- COMPOUND: "Nc1nc(Cl)nc2c1c(-c1nc(Cc3ccccc3)cs1)cn2[C@@H]1C[C@H](CNCCCNCCc2ccccc2)[C@@H](O)[C@H]1O"
  ΔTm at 500 µM: "15 to 20 °C"
- COMPOUND: "CNc1ncnc2c1ccn2[C@@H]1C[C@H](CNCCCNCCc2ccccc2)[C@@H](O)[C@H]1O"
  ΔTm at 500 µM: "10 to 15 °C"
- COMPOUND: "Nc1ncnc2c1c(Br)cn2[C@@H]1C[C@H](CNCCCNCCc2ccc(C(F)(F)F)cc2)[C@@H](O)[C@H]1O"
  ΔTm at 500 µM: "15 to 20 °C"
- COMPOUND: "CNc1ncnc2c1ccn2[C@@H]1C[C@H](COCCNCCc2ccccc2)[C@@H](O)[C@H]1O"
  ΔTm at 500 µM: "≤ 10 °C"
- COMPOUND: "CNc1ncnc2c1ccn2[C@@H]1C[C@H](CNCCCNCCc2ccc3ccccc3c2)[C@@H](O)[C@H]1O"
  ΔTm at 500 µM: "10 to 15 °C"
- COMPOUND: "Nc1ncnc2c1c(-c1nccs1)cn2[C@@H]1C[C@H](c2cc(Cl)cc(Cl)c2)[C@@H](O)[C@H]1O"
  ΔTm at 500 µM: "≤ 10 °C"

Data origin, for the record: patent US20250188110A1
